- assayed target: Neu5Ac(a2-6)Gal(b1-4)GlcNAc(b1-3)Gal(b1-3)GlcNAc
- protocol description: glycan array binding signal (z-score within array); higher = stronger binding
- assay conditions: glycan notation: IUPAC condensed, linker removed
The entries come from a sample that favours the strongest signals as a whole.
The entries below are paired with their reported glycan array binding signal (z-score).
attribute measured: glycan array binding signal (z-score)

[
  {
    "binder": "Clec18A (Homo sapiens) (protein) PFHTCDLRIDGDCFMVSSEADTYYRARMKCQRKGGVLAQIKRQKVQDILAFYLGRLETTNEVIDSDFETRNFWIGLTYKTAKDSFRWATGEHQAFTSFAFGQPDNHGFGNCVELQASAAFNWNDQRCKTRNRYICQ",
    "recorded value": -0.391
  },
  {
    "binder": "Gal 7 (Canis lupus) (protein) MAGSSNVPHKTSLPEGIRVGTVMRIRGVVPNKAGRFYVNLLCGEAPGSEAALHFNPRLDESTVVFNTLEQGAWGREERGTGIPFQRGQPFDVLLIATDEGFKAVVGDSEYHHFRYRIPPARVRLLEVGGDLQLESVSVF",
    "recorded value": 3.85
  },
  {
    "binder": "Ficolin B (Rattus norvegicus), P57756 (protein) MVLGSAALFVLSLCVTELTLHAADTCPEVKVLDLEGSNKLTILQGCPGLPGALGPKGEAGAKGDRGESGLPGHPGKAGPTGPKGDRGEKGVRGEKGDTGPSQSCATGPRTCKELLTRGYFLTGWYTIYLPDCRPLTVLCDMDTDGGGWTVFQRRIDGTVDFFRDWTSYKQGFGSQLGEFWLGNDNIHALTTQGTNELRVDLADFDGNHDFAKYSSFQIQGEAEKYKLILGNFLGGGAGDSLTSQNNMLFSTKDQDNDQGSSNCAVRYHGAWWYSDCHTSNLNGLYLRGLHKSYANGVNWKSWKGYNYSYKVSEMKVRLI",
    "recorded value": 0.054
  }
]
